assay: Total clearance in Sprague-Dawley rat at 1 mg/kg, iv after 24 hrs by LC-MS/MS analysis
Assay type: ADME, organism-based
Parameters: dose 1 mg/kg, route intravenous
assay.setup: in vivo
Where a SMILES comes first, the peptide text is derived from it. [ ]: non-standard residue; d: D form. Arg(Me) = CNC(=N)NCCC[C@H](N)C(=O)O; d4Pal = N[C@H](Cc1ccncc1)C(=O)O; azaGly = NNC(=O)O
compounds and their reported clearance

compound	units	clearance
CNC(=N)NCCC[C@H](NC(=O)[C@H](CC(C)C)NC(=O)NNC(=O)[C@H](Cc1ccccc1)NC(=O)[C@H](CO)NC(=O)[C@H](CC(N)=O)NC(=O)[C@@H](Cc1ccncc1)NC(=O)[C@H](N)Cc1ccc(O)cc1)C(=O)N[C@@H](Cc1ccccc1)C(N)=O [KISS1-305] (H-[dY][d4Pal]NSF[azaGly]L[Arg(Me)]F-NH2)	mL/min/kg	69.9
CNC(=N)NCCC[C@H](NC(=O)[C@H](CC(C)C)NC(=O)NNC(=O)[C@H](Cc1ccccc1)NC(=O)[C@@H](NC(=O)[C@H](CC(N)=O)NC(=O)[C@@H](Cc1c[nH]c2ccccc12)NC(=O)[C@@H](Cc1ccc(O)cc1)NC(C)=O)[C@@H](C)O)C(=O)N[C@@H](Cc1c[nH]c2ccccc12)C(N)=O (Ac-[dY][dW]NTF[azaGly]L[Arg(Me)]W-NH2)	mL/min/kg	13.7
CNC(=N)NCCC[C@H](NC(=O)[C@H](CC(C)C)NC(=O)NNC(=O)[C@H](Cc1ccccc1)NC(=O)[C@@H](NC(=O)[C@H](CC(N)=O)NC(=O)[C@@H](Cc1c[nH]c2ccccc12)NC(=O)[C@@H](Cc1ccc(O)cc1)NC(C)=O)[C@@H](C)O)C(=O)N[C@@H](Cc1ccccc1)C(N)=O	mL/min/kg	34.5
CNC(=N)NCCC[C@H](NC(=O)[C@H](CC(C)C)NC(=O)NNC(=O)[C@H](Cc1ccccc1)NC(=O)[C@@H](NC(=O)[C@H](CC(N)=O)NC(=O)[C@@H](Cc1ccncc1)NC(=O)[C@@H](Cc1ccc(O)cc1)NC(C)=O)[C@@H](C)O)C(=O)N[C@@H](Cc1c[nH]c2ccccc12)C(N)=O	mL/min/kg	13.2
CNC(=N)NCCC[C@H](NC(=O)[C@H](CC(C)C)NC(=O)NNC(=O)[C@H](Cc1ccccc1)NC(=O)[C@@H](NC(=O)[C@H](CC(N)=O)NC(=O)[C@@H](Cc1c[nH]c2ccccc12)NC(=O)[C@H](N)Cc1ccc(O)cc1)[C@@H](C)O)C(=O)N[C@@H](Cc1c[nH]c2ccccc12)C(N)=O	mL/min/kg	33.3
